# Target Or Test System: Nuclear receptor ROR-gamma (Mus musculus) (UniProt P51450)
# Sequence (P51450 whole entry, looked up): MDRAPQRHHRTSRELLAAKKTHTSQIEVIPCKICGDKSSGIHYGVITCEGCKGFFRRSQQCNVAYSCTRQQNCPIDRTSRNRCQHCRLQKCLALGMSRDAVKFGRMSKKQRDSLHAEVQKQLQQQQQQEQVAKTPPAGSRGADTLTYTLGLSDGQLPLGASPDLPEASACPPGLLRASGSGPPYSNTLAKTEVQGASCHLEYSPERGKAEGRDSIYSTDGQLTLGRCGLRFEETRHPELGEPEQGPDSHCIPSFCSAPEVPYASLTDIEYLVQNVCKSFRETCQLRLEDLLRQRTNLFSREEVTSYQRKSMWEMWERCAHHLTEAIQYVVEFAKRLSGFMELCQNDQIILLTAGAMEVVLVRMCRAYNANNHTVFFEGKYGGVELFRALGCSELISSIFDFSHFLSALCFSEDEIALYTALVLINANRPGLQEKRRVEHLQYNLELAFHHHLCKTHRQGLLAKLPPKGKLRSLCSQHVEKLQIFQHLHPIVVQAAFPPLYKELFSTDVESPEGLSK
# Experiment Description: qHTS for inhibitors of ROR gamma transcriptional activity; further: nearly all actives have a fitted effect of over 60% in size
# Measurement Setup: Drosophila S2 Gal4-RORgamma UAS-luciferase reporter, 20 h; series mostly up to 53.6 µM
The campaign covered roughly 310,000 compounds. About 17,000 (5.5%) were called active. Another 11% or so got no clear call; they are omitted. The call rests on the fitted dose curve; in most records, active means well fitted inhibition curve with a large enough effect; inconclusive means small, poorly fitted or top-dose-only effect, or effect the other way; inactive means no such curve, though single readings can be large or run the other way. What follows is part of a selection rich in actives, with near analogues and random picks from the rest.
Outcome codes: T = active, F = inactive

compound=Cc1cc(C)cc(NC(=S)NCCCN2CCOCC2)c1 label_value=F
compound=CCC(CC)c1nnc(NC(=O)C2CCN(C(=O)c3ccco3)CC2)s1 label_value=F
compound=CCOc1ccc(CCNC(=O)Nc2ccccc2)cc1OCC label_value=F
compound=COc1ccccc1C(=O)NC(=S)Nc1ccccc1N1CCCCC1 label_value=T
compound=CCOC(=O)N/N=C/c1cccnc1 label_value=F
compound="O=C(CS(=O)(=O)Cc1ccccc1)NCC1CCCO1 (configuration not stated)" label_value=F
compound=COC(=O)c1ccccc1NC(=O)CSc1n[nH]c(-c2ccncc2)n1 label_value=F
compound=O=[N+]([O-])c1cc(C(F)(F)F)ccc1NCCc1ccncc1 label_value=F
compound="CC(C(=O)Nc1ccc(O)c(C(=O)O)c1)N1C(=O)/C(=C/c2cccs2)SC1=S (configuration not stated)" label_value=F
compound=CCCNC(=O)COc1coc(CN2CCN(Cc3ccccc3)CC2)cc1=O label_value=F
compound=O=C(O)CCn1c(Cc2ccccc2)nc2ccccc21 label_value=F
compound=O=C(NCCc1ccccc1)C1CC1 label_value=F
compound=COc1cc(C(=O)Nc2cc(C(F)(F)F)ccc2N2CCOCC2)ccc1O label_value=F
compound="CC(Sc1nncn1C)C(=O)Nc1cc(C(F)(F)F)ccc1N1CCOCC1 (configuration not stated)" label_value=F
compound=O=C(C/C(=N\NC(=O)c1ccccc1Br)C(F)(F)F)c1cccs1 label_value=T
compound=O=C(NC1CCN(Cc2ccccc2)CC1)c1ccccc1F label_value=F
compound=CC(C)c1ccc(NC(=O)NC2CCCCC2)cc1 label_value=F
compound=Cc1ccc(-n2ncc(C(=O)NC3CC3)c2C2CCN(C(=O)OC(C)(C)C)CC2)c(C)c1 label_value=F
compound=Cn1c(=O)c2ccccc2n(CC(=O)Nc2ccc3c(c2)OCCO3)c1=O label_value=F
compound=Cn1nnc(NC(=S)NC(=O)c2ccccc2)n1 label_value=T
compound="S=C(NCCc1ccccc1)NCC1CCCO1 (configuration not stated)" label_value=T
compound=CC(=O)Nc1cccc(NC(=O)CSc2nccn2Cc2ccc(F)cc2)c1 label_value=F
compound="CC(=O)NCC(=O)NC1CCCc2c1cnn2-c1ccccc1F (configuration not stated)" label_value=F
compound=COc1cccc(NC(=O)CN(C)C(=O)Cc2ccc(Cl)cc2Cl)c1 label_value=F
compound=S=C(NCCc1ccccc1)Nc1ccccc1 label_value=T
compound=COc1ccccc1C(=O)NC(=S)NC12CC3CC(CC(C3)C1)C2 label_value=F
compound=O=C(Nc1nn(Cc2ccccc2F)cc1Br)c1cccs1 label_value=F
compound=Cc1cc(C)cc(NC(=S)NCCc2c[nH]c3ccccc23)c1 label_value=T
compound=O=C(NCCc1c[nH]c2ccccc12)c1cccc(Br)c1 label_value=F
compound=CCOCc1nnc(NC(=O)CCS(=O)(=O)Cc2ccccc2)s1 label_value=F
compound=COc1ccc(CCNC(=O)CCNS(=O)(=O)c2cc(Br)cnc2N)cc1OC label_value=F
compound=CCNS(=O)(=O)c1ccc(CCC(=O)N2CCN(c3ccc(OC)cc3)CC2)cc1 label_value=F
compound=Cc1ccc(NC(=S)NC2CCCC2)cc1 label_value=T
compound=O=C(NC1CCN(Cc2ccccc2)CC1)c1c(F)cccc1F label_value=F
compound=Cc1ccc(NC(=O)c2cc3ccccc3o2)cc1 label_value=F
compound=O=C(Nc1ccc(Cl)cc1)c1cccc(OC(=S)N2CCOCC2)c1 label_value=F
compound="CCc1ccc(NC(=O)CS(=O)CC(=O)NCCCc2ccccc2)cc1 (configuration not stated)" label_value=F
compound=Cc1cc(C(=O)COC(=O)C2CC2)c(C)n1-c1ccc(F)cc1 label_value=F
compound=COc1ccc(C(=O)COC(=O)CNC(=O)c2cccs2)cc1Br label_value=F
compound=O=C(Nc1ccccc1N1CCN(C(=O)c2ccccc2)CC1)c1ccco1 label_value=F
compound="CC1CCCCN1C(=O)Cn1c(=O)oc2cc(S(=O)(=O)N3CCCCC3)ccc21 (configuration not stated)" label_value=F
compound=O=C(NC(=S)Nc1cc(C(F)(F)F)ccc1N1CCOCC1)c1ccc(-c2cccc(Cl)c2)o1 label_value=T
compound=S=C(NCCCc1ccccc1)Nc1ccc(Br)cc1 label_value=T
compound="O=C1CCC(C(=O)N2CCN(c3ccccc3Cl)CC2)CN1CC1CCCCC1 (configuration not stated)" label_value=F
compound=COC(=O)c1nc(NC(=O)c2ccccc2)n[nH]1 label_value=F
compound="O=C(NCCc1c[nH]c2ccccc12)C(=O)NCC1CCCO1 (configuration not stated)" label_value=F
compound=CC(=O)N1CCN(c2ccccc2NC(=S)NC(=O)c2cc3ccccc3o2)CC1 label_value=T
